- tested on: mouse VISTA (mVISTA) (Mus musculus, UniProt Q9D659)
- Construct: expressed in transfected cells; host or cells: Human embryonic kidney 293T cells
- Sequence (Q9D659 33-308): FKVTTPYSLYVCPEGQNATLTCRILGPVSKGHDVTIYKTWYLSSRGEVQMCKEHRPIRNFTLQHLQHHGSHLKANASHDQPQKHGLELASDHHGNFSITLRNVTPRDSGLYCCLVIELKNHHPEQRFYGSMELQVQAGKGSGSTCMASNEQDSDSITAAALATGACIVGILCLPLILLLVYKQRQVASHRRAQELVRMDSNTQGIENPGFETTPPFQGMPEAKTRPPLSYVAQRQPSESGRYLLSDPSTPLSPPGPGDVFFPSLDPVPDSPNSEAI
- assay text: Cell-Based Binding High-Content Assay For mVISTA (HC CBA mVISTA)
- run conditions: 293T cells expressing mouse VISTA; competition with biotinylated peptide (2 nM); read-out: HC CBA mVISTA IC50
Positions of bridges follow the written chain, without caps; N, C: chain ends. Non-standard residues stand in square brackets, D forms with d. Residues, ends and D or L forms follow the SMILES beside them. Ahp(2) = CCCCC[C@H](N)C(=O)O; NHexGly = CCCCCCNCC(=O)O; Orn = NCCC[C@H](N)C(=O)O
Would you kindly list pIC50 for each of these molecules?
Numbers only, as −log10 of the molar value.

molecule	tested on	pIC50
CCCCCCN1CC(=O)N[C@@H](Cc2ccc(O)cc2)C(=O)N[C@@H](CCCCN)C(=O)N[C@@H](CC(=O)O)C(=O)N[C@@H](CCCN)C(=O)N[C@@H](CC(C)C)C(=O)N[C@@H](CCCCC)C(=O)N2CCC[C@H]2C(=O)N[C@@H](C(C)C)C(=O)N[C@@H](CO)C(=O)N[C@H](C(=O)NCC(=O)O)CSCC(=O)N[C@@H](Cc2ccccc2)C(=O)N[C@@H](Cc2ccc(O)cc2)C(=O)N[C@@H](CC(=O)O)C1=O [Example 1051] ({CH2CO}-FYD[NHexGly]YKD[Orn]L[Ahp(2)]PVSCG-OH; thioether N-14)	mouse VISTA (mVISTA) (Mus musculus, UniProt Q9D659)	7.94

Let us move to another entry and its pIC50.
Short answer for CCCCCCN1CC(=O)N[C@@H](Cc2ccc(O)cc2)C(=O)N[C@@H](CCCCC)C(=O)N[C@@H](CCC(=O)O)C(=O)N[C@@H](CCCNC(=N)N)C(=O)N[C@@H](CC(C)C)C(=O)N[C@@H](CCCCC)C(=O)N2CCC[C@H]2C(=O)N[C@@H](C(C)C)C(=O)N[C@@H](CO)C(=O)N[C@H](C(=O)NCC(N)=O)CSCC(=O)N[C@@H](Cc2ccccc2)C(=O)N[C@@H](Cc2ccc(O)cc2)C(=O)N[C@@H](CC(=O)O)C1=O [Example 1057] ({CH2CO}-FYD[NHexGly]Y[Ahp(2)]ERL[Ahp(2)]PVSCG-NH2; thioether N-14) : pIC50 was 7.45

---

Would you kindly list IC50 for each of these compounds?
- tested on: mouse VISTA (mVISTA) (Mus musculus, UniProt Q9D659)
- Construct: expressed in transfected cells; host or cells: Human embryonic kidney 293T cells
- assay text: Cell-Based Binding High-Content Assay For mVISTA (HC CBA mVISTA)
- run conditions: 293T cells expressing mouse VISTA; competition with biotinylated peptide (2 nM); read-out: HC CBA mVISTA IC50
Positions of bridges follow the written chain, without caps; N, C: chain ends. Non-standard residues stand in square brackets, D forms with d. Residues, ends and D or L forms follow the SMILES beside them. Ahp(2) = CCCCC[C@H](N)C(=O)O; NHexGly = CCCCCCNCC(=O)O
Numbers only, in nM.

compound	unit spec	meas value
CCCCCCN1CC(=O)N[C@@H](Cc2ccc(O)cc2)C(=O)N[C@@H](CC(C)C)C(=O)NCC(=O)N[C@@H](CCCNC(=N)N)C(=O)N[C@@H](Cc2ccc(O)cc2)C(=O)N[C@@H](CCCCC)C(=O)N2CCC[C@H]2C(=O)N[C@@H](C(C)C)C(=O)N[C@@H](CO)C(=O)N[C@H](C(=O)NCC(=O)O)CSCC(=O)N[C@@H](Cc2ccccc2)C(=O)N[C@@H](Cc2ccc(O)cc2)C(=O)N[C@@H](CC(=O)O)C1=O [Example 1095] ({CH2CO}-FYD[NHexGly]YLGRY[Ahp(2)]PVSCG-OH; thioether N-14)	nM	17.4

Let us move to another entry and its IC50.
Short answer for CCCCCCN1CC(=O)N[C@@H](Cc2ccc(O)cc2)C(=O)N[C@@H](CCCCC)C(=O)NCC(=O)N[C@@H](CCCNC(=N)N)C(=O)N[C@@H](CC(C)C)C(=O)N[C@@H](CCCCC)C(=O)N2CCC[C@H]2C(=O)N[C@@H](C(C)C)C(=O)N[C@@H](CO)C(=O)N[C@H](C(=O)NCC(N)=O)CSCC(=O)N[C@@H](Cc2ccccc2)C(=O)N[C@@H](Cc2ccc(O)cc2)C(=O)N[C@@H](CC(=O)O)C1=O [Example 1039] ({CH2CO}-FYD[NHexGly]Y[Ahp(2)]GRL[Ahp(2)]PVSCG-NH2; thioether N-14) : IC50 was 2.2

---

- tested on: mouse VISTA (mVISTA) (Mus musculus)
- Construct: expressed in transfected cells; host or cells: Human embryonic kidney 293T cells
- assay text: Cell-Based Binding High-Content Assay For mVISTA (HC CBA mVISTA)
- run conditions: read-out: HC CBA mVISTA IC50
Starred links: 1 amine or outer side, 2 acyl side, 3 side chain; linkers in the order of their positions; H or OH if unused. Positions of bridges follow the written chain, without caps; N, C: chain ends. Non-standard residues stand in square brackets, D forms with d. Residues, ends and D or L forms follow the SMILES beside them. ξ: configuration not given here. X1 = C=CCOc1ccccc1C[C@H](N[*:1])C(=O)[*:2]; Phe(3-Br) = N[C@@H](Cc1cccc(Br)c1)C(=O)O; Phe(3-Me) = Cc1cccc(C[C@H](N)C(=O)O)c1; Phe(4-Me) = Cc1ccc(C[C@H](N)C(=O)O)cc1; Phe(2-Me) = Cc1ccccc1C[C@H](N)C(=O)O; Ahp(2) = CCCCC[C@H](N)C(=O)O; NMeNle = CCCC[C@H](NC)C(=O)O; Tle = CC(C)(C)[C@H](N)C(=O)O; NHexGly = CCCCCCNCC(=O)O; Nle = CCCC[C@H](N)C(=O)O; Orn = NCCC[C@H](N)C(=O)O; ξD = NC(CC(=O)O)C(=O)O
metric name: pIC50
Numbers only, as −log10 of the molar value.

molecule	tested on	pIC50
C=CCOc1ccccc1C[C@@H]1NC(=O)[C@H](Cc2ccccc2)NC(=O)CSC[C@@H](C(=O)NCC(N)=O)NC(=O)[C@H](CO)NC(=O)[C@H](C(C)(C)C)NC(=O)[C@@H]2CCCN2C(=O)[C@H](CCCCC)NC(=O)[C@H](CCCC)N(C)C(=O)[C@H](CCCNC(=N)N)NC(=O)[C@H](CC(N)=O)NC(=O)[C@H](CC(C)C)NC(=O)[C@H](Cc2ccc(O)cc2)NC(=O)CN(CCCCCC)C(=O)[C@H](CC(=O)O)NC1=O [compound 1338] ({CH2CO}-F[X1]D[NHexGly]YLNR[NMeNle][Ahp(2)]P[Tle]SCG-NH2; thioether N-14)	mouse VISTA (mVISTA) (Mus musculus)	7.46
CCCCCCN1CC(=O)N[C@@H](Cc2ccc(O)cc2)C(=O)N[C@@H](CCCC)C(=O)N[C@@H](CC(=O)O)C(=O)N[C@@H](CCCN)C(=O)N[C@@H](CC(C)C)C(=O)N[C@@H](CCCCC)C(=O)N2CCC[C@H]2C(=O)N[C@@H](C(C)C)C(=O)N[C@@H](CC(=O)O)C(=O)N[C@H](C(=O)NC(CC(=O)O)C(N)=O)CSCC(=O)N[C@@H](Cc2ccccc2)C(=O)N[C@@H](Cc2cccc(C)c2)C(=O)N[C@@H](CC(=O)O)C1=O (some centres unmarked) [compound 1326] ({CH2CO}-F[Phe(3-Me)]D[NHexGly]Y[Nle]D[Orn]L[Ahp(2)]PVDC[ξD]-NH2; thioether N-14)	mouse VISTA (mVISTA) (Mus musculus)	7.76
CCCCCCN1CC(=O)N[C@@H](Cc2ccc(O)cc2)C(=O)N[C@@H](CCCC)C(=O)N[C@@H](CC(N)=O)C(=O)N[C@@H](CCCNC(=N)N)C(=O)N(C)[C@@H](CCCC)C(=O)N[C@@H](CCCCC)C(=O)N2CCC[C@H]2C(=O)N[C@@H](C(C)C)C(=O)N[C@@H](CC(=O)O)C(=O)N[C@H](C(=O)N[C@@H](CO)C(=O)O)CSCC(=O)N[C@@H](Cc2ccccc2)C(=O)N[C@@H](Cc2c[nH]c3ccccc23)C(=O)N[C@@H](CC(=O)O)C1=O [Example 1406] ({CH2CO}-FWD[NHexGly]Y[Nle]NR[NMeNle][Ahp(2)]PVDCS-OH; thioether N-14)	mouse VISTA (mVISTA) (Mus musculus)	8.19
CCCCCCN1CC(=O)N[C@@H](Cc2ccc(O)cc2)C(=O)N[C@@H](CC(C)C)C(=O)N[C@@H](CC(N)=O)C(=O)N[C@@H](CCCNC(=N)N)C(=O)N(C)[C@@H](CCCC)C(=O)N[C@@H](CCCCC)C(=O)N2CCC[C@H]2C(=O)N[C@@H](C(C)C)C(=O)N[C@@H](CO)C(=O)N[C@H](C(=O)NCC(N)=O)CSCC(=O)N[C@@H](Cc2ccccc2C)C(=O)N[C@@H](Cc2ccc(O)cc2)C(=O)N[C@@H](CC(=O)O)C1=O [compound 1204] ({CH2CO}-[Phe(2-Me)]YD[NHexGly]YLNR[NMeNle][Ahp(2)]PVSCG-NH2; thioether N-14)	mouse VISTA (mVISTA) (Mus musculus)	7.74
CCCCCCN1CC(=O)N[C@@H](Cc2ccc(O)cc2)C(=O)N[C@@H](CC(C)C)C(=O)N[C@@H](CC(N)=O)C(=O)N[C@@H](CCCNC(=N)N)C(=O)N(C)[C@@H](CCCC)C(=O)N[C@@H](CCCCC)C(=O)N2CCC[C@H]2C(=O)N[C@@H](C(C)C)C(=O)N[C@@H](CO)C(=O)N[C@H](C(=O)NCC(N)=O)CSCC(=O)N[C@@H](Cc2cccc(Br)c2)C(=O)N[C@@H](Cc2ccc(O)cc2)C(=O)N[C@@H](CC(=O)O)C1=O [compound 1224] ({CH2CO}-[Phe(3-Br)]YD[NHexGly]YLNR[NMeNle][Ahp(2)]PVSCG-NH2; thioether N-14)	mouse VISTA (mVISTA) (Mus musculus)	7.65
CCCCCCN1CC(=O)N[C@@H](Cc2ccc(O)cc2)C(=O)N[C@@H](CCCC)C(=O)N[C@@H](CC(=O)O)C(=O)N[C@@H](CCCNC(=N)N)C(=O)N[C@@H](CC(C)C)C(=O)N[C@@H](CCCCC)C(=O)N2CCC[C@H]2C(=O)N[C@@H](C(C)C)C(=O)N[C@@H](CO)C(=O)N[C@H](C(=O)NCC(=O)O)CSCC(=O)N[C@@H](Cc2ccccc2)C(=O)N[C@@H](Cc2c[nH]c3ccccc23)C(=O)N[C@@H](CC(=O)O)C1=O [Example 1356] ({CH2CO}-FWD[NHexGly]Y[Nle]DRL[Ahp(2)]PVSCG-OH; thioether N-14)	mouse VISTA (mVISTA) (Mus musculus)	7.54
CCCCCCN1CC(=O)N[C@@H](Cc2ccc(O)cc2)C(=O)N[C@@H](CC(C)C)C(=O)N[C@@H](CC(N)=O)C(=O)N[C@@H](CCCNC(=N)N)C(=O)N(C)[C@@H](CCCC)C(=O)N[C@@H](CCCCC)C(=O)N2CCC[C@H]2C(=O)N[C@@H](C(C)C)C(=O)N[C@@H](CO)C(=O)N[C@H](C(=O)NCC(N)=O)CSCC(=O)N[C@@H](Cc2ccc(C)cc2)C(=O)N[C@@H](Cc2ccc(O)cc2)C(=O)N[C@@H](CC(=O)O)C1=O [compound 1214] ({CH2CO}-[Phe(4-Me)]YD[NHexGly]YLNR[NMeNle][Ahp(2)]PVSCG-NH2; thioether N-14)	mouse VISTA (mVISTA) (Mus musculus)	7.63

Let us move to another entry and its pIC50.
Considering CCCCCCN1CC(=O)N[C@@H](Cc2ccc(O)cc2)C(=O)N[C@@H](CCCCC)C(=O)NCC(=O)N[C@@H](CCCNC(=N)N)C(=O)N[C@@H](CC(C)C)C(=O)N[C@@H](CCCCC)C(=O)N2CCC[C@H]2C(=O)N[C@@H](C(C)C)C(=O)N[C@@H](CO)C(=O)N[C@H](C(=O)NCC(N)=O)CSCC(=O)N[C@@H](Cc2ccccc2)C(=O)N[C@@H](Cc2ccccc2)C(=O)N[C@@H](CC(=O)O)C1=O [compound 1325] ({CH2CO}-FFD[NHexGly]Y[Ahp(2)]GRL[Ahp(2)]PVSCG-NH2; thioether N-14) , its pIC50 with mouse VISTA (mVISTA) (Mus musculus) was recorded as 7.61
